experimental-details: Oral bioavailability in rat
Type: ADME, organism-based
condition-details: in vivo
Exercise: state measured bioavailability for each of the compounds provided.
Give bare numbers, in %.

# annotated cases, reported bioavailability shown
N#Cc1ccc(C(F)(F)F)nc1O[C@H](CCN)c1ccno1.O=C(O)C(=O)O
49
N#Cc1cc(F)c(Cl)cc1O[C@H](CCN)c1ccccc1.O=C(O)C(=O)O
57

Quick one: bioavailability of `N#Cc1ccc(C(=O)N2CCC3(CC2)N=C(N)c2c(F)ccc(F)c2N3)cn1` ?
75

---

target-or-test-system: Sodium-dependent serotonin transporter (Homo sapiens, UniProt P31645)
Sequence (P31645 whole entry): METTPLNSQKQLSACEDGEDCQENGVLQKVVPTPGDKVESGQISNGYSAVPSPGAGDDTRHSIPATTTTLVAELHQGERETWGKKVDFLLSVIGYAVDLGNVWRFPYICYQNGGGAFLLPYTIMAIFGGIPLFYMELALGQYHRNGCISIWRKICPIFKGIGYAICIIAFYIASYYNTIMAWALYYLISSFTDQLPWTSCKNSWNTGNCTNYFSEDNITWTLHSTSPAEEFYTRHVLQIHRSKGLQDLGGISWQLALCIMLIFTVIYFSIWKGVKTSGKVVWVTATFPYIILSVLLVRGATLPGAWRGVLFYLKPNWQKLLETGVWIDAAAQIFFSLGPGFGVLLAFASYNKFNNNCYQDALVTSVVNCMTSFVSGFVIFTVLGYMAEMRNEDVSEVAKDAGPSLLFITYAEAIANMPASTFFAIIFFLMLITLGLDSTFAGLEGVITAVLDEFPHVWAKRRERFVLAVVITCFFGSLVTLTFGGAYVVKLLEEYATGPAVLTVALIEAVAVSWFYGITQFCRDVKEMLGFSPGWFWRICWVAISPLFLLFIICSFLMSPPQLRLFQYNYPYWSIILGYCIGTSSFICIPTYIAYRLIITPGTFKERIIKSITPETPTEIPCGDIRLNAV
experimental-details: Inhibition of serotonin transporter
condition-details: read-out: IC50
observation-type: pIC50
Answers are plain numbers, as −log10 of the molar value.

N#Cc1ccc(Cl)cc1S[C@H](CCN)c1ccccc1.O=C(O)/C=C/C(=O)O
5.17
CNCC[C@@H](Oc1cc(C(F)(F)F)ccc1C#N)c1ccccc1.Cl
5.00
CNCC[C@@H](Oc1cc(OC)ccc1C#N)c1ccccc1.O=C(O)C(=O)O
5.24
CNCC[C@@H](Oc1cc(Cl)ccc1C#N)c1ccccc1.Cl
5.35
N#Cc1ccc(C(F)(F)F)nc1O[C@H](CCN)c1ccno1.O=C(O)C(=O)O
4.15
N#Cc1ccc(Cl)cc1O[C@H](CCN)c1ccccc1.O=C(O)C(=O)O
5.68
N#Cc1cc(F)c(Cl)cc1O[C@H](CCN)c1ccccc1.O=C(O)C(=O)O
5.36
Cc1ccc(C#N)c(S[C@H](CCN)c2ccccc2)n1.O=C(O)/C=C/C(=O)O
5.59

Consider the additional compound presented here.
Notebook: pull reported pIC50 for Sodium-dependent serotonin transporter (Homo sapiens, UniProt P31645), entry CCC(CCNC)Oc1cc(Cl)ccc1C#N.Cl (racemic)
4.36
